Measured IC50 accompanies every entry in the list below.
Biological target: BTK, recombinant human catalytic domain (aa 393-659) (Homo sapiens (Human))
Sequence (Q06187 393-659): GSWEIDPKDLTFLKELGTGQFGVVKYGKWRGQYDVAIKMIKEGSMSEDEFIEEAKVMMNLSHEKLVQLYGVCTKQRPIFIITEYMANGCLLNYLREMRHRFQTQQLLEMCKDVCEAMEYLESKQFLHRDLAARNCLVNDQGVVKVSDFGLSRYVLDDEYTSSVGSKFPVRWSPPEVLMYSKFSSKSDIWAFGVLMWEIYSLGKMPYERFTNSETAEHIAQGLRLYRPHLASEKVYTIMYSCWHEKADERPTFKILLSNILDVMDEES
Assay: In vitro BTK kinase activity measured by time-resolved fluorescence resonance energy transfer (trFRET)
Assay type: biochemical
Settings: trFRET, 0.001 mM ATP, biotin-TYR1 peptide substrate; read-out: Btk IC50
Outcome Measure: IC50

Cc1c(-c2ccc(C(N)=O)c3[nH]c(-c4cccnc4)cc23)cccc1N1Cc2ccccc2C1=O = < 100 nM
C=CC(=O)Nc1cccc(-c2ccc(C(N)=O)c3[nH]c(-c4ccc(S(C)(=O)=O)cc4)cc23)c1C = < 100 nM
C=CC(=O)Nc1cccc(-c2ccc(C(N)=O)c3[nH]c(-c4cccnc4OC)cc23)c1C = < 100 nM
CN(C)C(=O)/C=C/C(=O)Nc1cccc(-c2ccc(C(N)=O)c3[nH]ccc23)c1 = 1000 to 10000 nM
C=C(CC)C(=O)Nc1cccc(-c2ccc(C(N)=O)c3[nH]ccc23)c1C = 1000 to 10000 nM
C=CC(=O)N1CC([C@@H](C)c2ccc(C(N)=O)c3[nH]ccc23)C1 [28 (R)] = < 100 nM
C=CC(=O)N[C@H]1CCC[C@H](c2ccc(C(N)=O)c3[nH]ccc23)C1 (relative stereo) = 100 to 1000 nM
C=CC(=O)Nc1cccc(-c2ccc(C(N)=O)c3[nH]c(-c4ccc(C#N)cc4)cc23)c1C = < 100 nM
Cc1ccc(-c2cc3c(-c4cnn(C)c4)ccc(C(N)=O)c3[nH]2)cc1 = 100 to 1000 nM
C=CC(=O)Nc1cccc(-c2ccc(C(N)=O)c3[nH]c(CCOCC)cc23)c1 = < 100 nM
CC(=O)N1CC=C(c2cc3c(-c4cccc(-n5cnc6ccccc6c5=O)c4C)ccc(C(N)=O)c3[nH]2)CC1 = < 100 nM
C=CC(=O)Nc1cccc(-c2ccc(C(N)=O)c3[nH]c(-c4ccc(OC)nc4)cc23)c1C = < 100 nM
CC(=O)N1CCC(c2cc3c(-c4cccc(NC(=O)c5ccc(C6CC6)cc5)c4C)ccc(C(N)=O)c3[nH]2)CC1 = 100 to 1000 nM
Cc1c(-c2ccc(C(N)=O)c3[nH]c(-c4cccnc4)cc23)cccc1-n1cnc2ccccc2c1=O = < 100 nM
C=CC(=O)NCc1ccccc1-c1cc2c(-c3cccc(NC(=O)c4nccs4)c3C)ccc(C(N)=O)c2[nH]1 = 1000 to 10000 nM
C=CC(=O)N1CC(N(C)c2cnc(C(N)=O)c3[nH]ccc23)C1 = < 100 nM
NC(=O)c1ccc(-c2cncc(N)c2)c2cc[nH]c12 = 1000 to 10000 nM

* * *

Reported IC50 by item:
Molecular target: BTK, recombinant human catalytic domain (aa 393-659) (Homo sapiens (Human))
Test: In vitro BTK kinase activity measured by time-resolved fluorescence resonance energy transfer (trFRET)
Format: biochemical
Details: trFRET, 0.001 mM ATP, biotin-TYR1 peptide substrate; read-out: Btk IC50
Outcome Measure: IC50

C=CC(=O)Nc1cccc(-c2ccc(C(N)=O)c3[nH]ncc23)c1 = < 0.1 µM
C=CC(=O)Nc1cccc(-c2ccc(C(N)=O)c3[nH]c(-c4ccccc4F)cc23)c1C = < 0.1 µM
C=CC(=O)Nc1cccc(-c2ccc(C(N)=O)c3[nH]c(-c4cnn(CC)c4)cc23)c1C = < 0.1 µM
CCNC(=O)/C=C/C(=O)Nc1cccc(-c2ccc(C(N)=O)c3[nH]ccc23)c1 = 1 to 10 µM
CNc1cccc(-c2ccc(C(N)=O)c3[nH]ccc23)c1 = 1 to 10 µM
Cc1c(N)cccc1-c1ccc(C(N)=O)c2[nH]c(C3=CCC(F)(F)CC3)cc12 = < 0.1 µM
C/C(O)=C(/C#N)C(=O)Nc1cccc(-c2ccc(C(N)=O)c3[nH]ccc23)c1 = 1 to 10 µM
Cc1c(NC(=O)c2ccc(C3CC3)cc2)cccc1-c1ccc(C(N)=O)c2[nH]c(-c3cncnc3)cc12 = 0.1 to 1 µM
